Target: T1, his-tagged human CDH6 extracellular region protein (hCDH6 ECD-his) (human, UniProt P55285 19-615)
T1 construct: also called Human CDH6-his; hCDH6-his; not shown: his tag
T1 sequence: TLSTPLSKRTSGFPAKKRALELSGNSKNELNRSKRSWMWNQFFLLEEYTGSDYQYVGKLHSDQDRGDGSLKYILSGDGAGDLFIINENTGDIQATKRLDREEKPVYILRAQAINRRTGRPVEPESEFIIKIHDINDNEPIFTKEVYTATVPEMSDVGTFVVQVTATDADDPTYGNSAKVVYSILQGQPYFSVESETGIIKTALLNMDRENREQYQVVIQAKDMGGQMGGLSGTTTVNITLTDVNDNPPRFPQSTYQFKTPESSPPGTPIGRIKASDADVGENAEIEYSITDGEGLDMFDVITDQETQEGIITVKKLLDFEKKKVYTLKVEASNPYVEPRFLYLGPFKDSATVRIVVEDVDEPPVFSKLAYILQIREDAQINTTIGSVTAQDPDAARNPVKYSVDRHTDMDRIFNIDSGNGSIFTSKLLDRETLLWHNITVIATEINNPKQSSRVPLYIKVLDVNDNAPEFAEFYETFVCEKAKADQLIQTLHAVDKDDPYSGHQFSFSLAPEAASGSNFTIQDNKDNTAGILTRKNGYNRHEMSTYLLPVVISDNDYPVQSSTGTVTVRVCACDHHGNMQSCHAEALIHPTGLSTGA
Test: SPR Biacore, antibody captured on Protein A

| BINDER | kon |
| --- | --- |
| hCDH6-6-H1L1 (antibody, V domains shown, Humanized) VH: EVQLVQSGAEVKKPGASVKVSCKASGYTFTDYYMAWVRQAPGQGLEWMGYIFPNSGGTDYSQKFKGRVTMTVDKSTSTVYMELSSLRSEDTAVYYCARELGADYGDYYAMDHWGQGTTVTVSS VL: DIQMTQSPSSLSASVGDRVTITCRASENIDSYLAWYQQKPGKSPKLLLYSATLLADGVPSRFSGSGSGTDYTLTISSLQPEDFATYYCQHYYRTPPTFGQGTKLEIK | 38600 M⁻¹ s⁻¹ |

Values from patent US20260234242A1
